# System: RPMI-8226 leukemia
# TEST_DETAILS: NCI tumour cell line growth inhibition, 48 h; in the data active = GI50 below about 0.43 µM; inactive = the rest
The reply should name one outcome from class 1 = active, class 0 = inactive

Recorded test outcome, item C/C=C(/C)C(=O)OC1C=C(CO)C(=O)C(OC(=O)C(C)(O)C(C)Cl)C1C(C)C (configuration not stated)
class 0

How did this test come out for CCCCCCN(C)Cc1ccc(OCCOc2ccc(CN(C)CCCCCC)cc2)cc1 ?
class 0

Please indicate how the test categorized Cc1cn2c(/C=C3/C(=O)Nc4ccc(F)cc43)c(C)nc2s1 .
class 0

Call for entry CC[C@@H](C)Nc1cc(C(=O)NC2CC3CCC(C2)N3c2ccc(C(=O)C3CC3)cn2)c(C)cc1C(N)=O (some centres not stated) :
class 1

Look up the recorded call for CCOC(=O)c1csc(NC(=O)COc2cccc(/C=C3\CSc4ccccc4C3=O)c2)n1 in this test.
class 0

Which outcome was assigned to O=C(Cn1c(C(=O)c2ccccc2)nc2ccccc21)c1ccc(F)cc1 in this test?
class 0

Give the logged outcome of this assay for the following compound: COC(=O)c1ccc2c(c1)c1c(C)c3ccncc3c(C)c1n2C
class 1

Hi, sorry to bother you, what did the test record for Cc1cc(NNC(=O)c2ccccc2O)nc(Nc2nc3ccccc3o2)n1 ?
class 0

So what was the verdict on CC(=O)C1CCC2C3CC=C4CC(SC(=N)N)CCC4(C)C3CCC12C (configuration not stated) in this test?
class 0

Which outcome was assigned to O=C(Nc1nc(-c2ccc(Cl)cc2)nc2c1sc(=S)n2-c1ccccc1)C(F)(F)F in this test?
class 0

Lab log entry: CCOc1c(C#N)c2c(N)ncnc2n1C1OC(CO)C(O)C1O (configuration not stated) — outcome as called in the assay?
class 0

So what was the verdict on COc1ccc(/C=C2\CC(C)CC3C2=NN(c2ccccc2)C3c2ccc(OC)c(OC)c2)cc1OC (configuration not stated) in this test?
class 0

* * *

Record form. Attribute: GI50. Fill in for each entry.
# System: A498 renal
# TEST_DETAILS: NCI tumour cell line growth inhibition, 48 h

Fill blank: measured GI50 of the compound NC(=Nc1nc(-c2ccccn2)cc2ccccc12)c1ccccn1 is ____.
28.3 nM

Which GI50 is reported for this compound? CCC[CH2][Sn]([CH2]CCC)([O]C(=O)c1cc(F)cc(F)c1)[O][Sn]([CH2]CCC)([CH2]CCC)[O]C(=O)c1cc(F)cc(F)c1
1430 nM

Form field: reported GI50 of CCc1nc2cc(/C=C/C(=O)NO)ccc2c(=O)n1CCc1ccc(F)cc1
1100 nM

Quick one: GI50 for CC(=O)C1CCC2C3CC=C4CC(SC(=N)N)CCC4(C)C3CCC12C (centres undefined) ?
1190 nM

I have this compound here, COc1cc(/C=C\c2cc(/C=C\c3ccc(O)c(OC)c3)n(C(=O)CNc3ccc(Cl)cc3)n2)ccc1O , and I need its recorded GI50.
7640 nM

For CCOc1c(C#N)c2c(N)ncnc2n1C1OC(CO)C(O)C1O (centres undefined) , what is its reported GI50?
4230 nM

Returns the measured GI50 for the input compound. Input: CC[C@@H](C)Nc1cc(C(=O)NC2CC3CCC(C2)N3c2ccc(C(=O)C3CC3)cn2)c(C)cc1C(N)=O (some centres undefined)
103 nM

Quick one: GI50 for COC(=O)c1ccc2c(c1)c1c(C)c3ccncc3c(C)c1n2C ?
583 nM

Param item = COc1ccc2c(c1)C(=O)c1c-2n(CCCN)c(=O)c2cc(OC)c(OC)cc12 ; retrieve measured GI50.
1890 nM

* * *

# Tested on: ACHN renal
# TEST_DETAILS: NCI tumour cell line growth inhibition, 48 h
I'd be grateful if you could share measured TGI for these entries.

Given CN(C)CCCNC(=O)c1cc(NC(=O)c2cc(NC(=O)[C@@H]3C[C@H]3C(=O)Nc3cc(C(=O)Nc4cc(C(=O)NCCCN(C)C)n(C)c4)n(C)c3)cn2C)cn1C , state its recorded TGI.
> 100 µM

Please give the measured TGI for this molecule: O=C(O)CCSC(=S)Nc1cccc(F)c1
83.3 µM

Recorded TGI for O=C(CN(c1ccc(S(=O)(=O)O)cc1)c1ccc(S(=O)(=O)O)cc1)Nn1cnc2ccc(S(=O)(=O)N(c3ccc(S(=O)(=O)O)cc3)c3ccc(S(=O)(=O)O)cc3)cc2c1=O , please?
> 100 µM

Entry under review: CCCCCCN(C)Cc1ccc(OCCOc2ccc(CN(C)CCCCCC)cc2)cc1 . Reported TGI?
3.63 µM

Consider the molecule O=C(O)c1ccc(Nc2nc3cc(C(F)(F)F)ccc3nc2-c2ccccc2)cc1 and give its measured TGI.
> 100 µM

What value of TGI has been recorded for this entry: O=C(NN1C(=O)CSC12CCCC2)C(O)c1ccccc1 (stereo not drawn)
> 100 µM

# lookup: TGI of NC(N)=NC(N)=Nc1ccccc1 (tested in a mixture with another compound)
> 100 µM

Query: TGI; subject: O=C(Cn1c(C(=O)c2ccccc2)nc2ccccc21)c1ccc(F)cc1
> 100 µM

I would be grateful if you could share the reported TGI for CC(=O)OCC(OC(C)=O)C(OC(C)=O)C(OC(C)=O)C(/C=N\Nc1nc2ccccc2c(=O)[nH]1)=N/Nc1nc2ccccc2c(=O)[nH]1 (stereo not drawn) .
> 100 µM

Given the molecule O=C1C(Cl)C(c2cc3cc(Br)ccc3nc2Cl)N1c1c(Cl)cccc1Cl (stereo not drawn) , what is its reported TGI?
> 25 µM

Please give the measured TGI for this molecule: O=C(N/N=C(/COc1cccc(Cl)c1)N=Cc1cccnc1)c1ccncc1
> 100 µM

# lookup: TGI of CC(=O)N/C(=C\c1ccc(/C=C(\NC(C)=O)C2=NC3C(=O)c4ccccc4C(=O)C3N2)cc1)C1=NC2C(=O)c3ccccc3C(=O)C2N1 (stereo not drawn)
> 100 µM

Which TGI is reported for this molecule? CC(=O)N=C1N(/C=C2\C(=O)Oc3ccccc3C2=O)C(=O)/C(=C/c2ccccc2Cl)N1C
> 100 µM

Endpoint output: TGI of Nc1ccccc1N=Nc1c(S(=O)(=O)O)cc2cc(S(=O)(=O)O)cc(O)c2c1O . Value?
> 100 µM

// TGI lookup, key: COc1cc2ncn(-c3cc(OCc4ccccc4C(F)(F)F)c(C(C)=O)s3)c2cc1OC
> 25 µM

What measured TGI goes with CN(C)CCNC(=O)c1cccc2ncc(-c3ccccc3)nc12 ?
> 94.3 µM

TGI lookup needed for COc1cc2c(c(OC(C)=O)c1OC(C)=O)-c1ccc(SC)c(=O)cc1C(NC(C)=O)CC2 (stereo not drawn) , thanks.
> 100 µM

Which TGI is listed for CC(=O)ON(C(C)=O)C1C(COC(c2ccccc2)(c2ccccc2)c2ccccc2)OC2OC3(CCCC3)OC21 (stereo not drawn) ?
> 100 µM

* * *

# System: MDA-MB-231 breast
# TEST_DETAILS: NCI tumour cell line growth inhibition, 48 h
Exercise: state measured TGI for each of the compounds provided.
Write the number in µM without appending the unit.

I am curious: what TGI value has been reported for COc1ccc(/C=C\c2cc(OC)c(OC)c(OC)c2)c(O)c1O ?
18.5

Return reported TGI; argument: O=C(Nc1cccc(Cl)c1)c1cc(N=Nc2ccc([N+](=O)[O-])cc2Cl)ccc1O
5.27

For the compound shown here, Oc1cc(CN2COc3ccccc32)c(O)cc1CNC1CCCCC1 , give the reported TGI.
41.8

# get_value(readout='TGI', item= CC(C)(C)c1ccc(O)c(CN(Cc2cc(C(C)(C)C)ccc2O)C2CCCCC2)c1 )
30.4

Suppose we examine the compound CCCCCCN(C)Cc1ccc(OCCOc2ccc(CN(C)CCCCCC)cc2)cc1 ; what TGI value has been reported?
2.84

For the compound CC1OC(O[C@H]2CC[C@]3(C=O)[C@H]4CC[C@]5(C)[C@H](C6=CC(=O)OC6)CC[C@]5(O)[C@@H]4C=C[C@]3(O)C2)CC(O)C1O (stereo not given in full) , what TGI is on record?
2.57

Name the recorded TGI for COc1ccc(CNc2cnc3cc(N)cc(N)c3n2)cc1 .
29.6

State the recorded TGI for this entry: CC1=CC(C)(C)Nc2ccc(CSc3ccccc3)cc21
94.1

* * *

Give measured TGI for each item. Keep answers brief.
# Tested on: UO-31 renal
# TEST_DETAILS: NCI tumour cell line growth inhibition, 48 h
Quick reminder: number only, in µM, skip the unit.

Which TGI value belongs to CN(O)C(=S)c1ccccc1 ?
21.6

Given C/C=C(/C)C(=O)OC1C=C(CO)C(=O)C(OC(=O)C(C)(O)C(C)Cl)C1C(C)C (stereo unspecified) , state its recorded TGI.
2.64

Would you mind telling me what TGI value was observed for CC(C)(C)c1ccc(O)c(CN(Cc2cc(C(C)(C)C)ccc2O)C2CCCCC2)c1 ?
99.9
